Exercise: state measured IC50 for each of the compounds provided.
- TARGET DESC: Epidermal growth factor receptor (Homo sapiens, UniProt P00533, L858R)
- Sequence (P00533 25-1210 L858R limits assumed): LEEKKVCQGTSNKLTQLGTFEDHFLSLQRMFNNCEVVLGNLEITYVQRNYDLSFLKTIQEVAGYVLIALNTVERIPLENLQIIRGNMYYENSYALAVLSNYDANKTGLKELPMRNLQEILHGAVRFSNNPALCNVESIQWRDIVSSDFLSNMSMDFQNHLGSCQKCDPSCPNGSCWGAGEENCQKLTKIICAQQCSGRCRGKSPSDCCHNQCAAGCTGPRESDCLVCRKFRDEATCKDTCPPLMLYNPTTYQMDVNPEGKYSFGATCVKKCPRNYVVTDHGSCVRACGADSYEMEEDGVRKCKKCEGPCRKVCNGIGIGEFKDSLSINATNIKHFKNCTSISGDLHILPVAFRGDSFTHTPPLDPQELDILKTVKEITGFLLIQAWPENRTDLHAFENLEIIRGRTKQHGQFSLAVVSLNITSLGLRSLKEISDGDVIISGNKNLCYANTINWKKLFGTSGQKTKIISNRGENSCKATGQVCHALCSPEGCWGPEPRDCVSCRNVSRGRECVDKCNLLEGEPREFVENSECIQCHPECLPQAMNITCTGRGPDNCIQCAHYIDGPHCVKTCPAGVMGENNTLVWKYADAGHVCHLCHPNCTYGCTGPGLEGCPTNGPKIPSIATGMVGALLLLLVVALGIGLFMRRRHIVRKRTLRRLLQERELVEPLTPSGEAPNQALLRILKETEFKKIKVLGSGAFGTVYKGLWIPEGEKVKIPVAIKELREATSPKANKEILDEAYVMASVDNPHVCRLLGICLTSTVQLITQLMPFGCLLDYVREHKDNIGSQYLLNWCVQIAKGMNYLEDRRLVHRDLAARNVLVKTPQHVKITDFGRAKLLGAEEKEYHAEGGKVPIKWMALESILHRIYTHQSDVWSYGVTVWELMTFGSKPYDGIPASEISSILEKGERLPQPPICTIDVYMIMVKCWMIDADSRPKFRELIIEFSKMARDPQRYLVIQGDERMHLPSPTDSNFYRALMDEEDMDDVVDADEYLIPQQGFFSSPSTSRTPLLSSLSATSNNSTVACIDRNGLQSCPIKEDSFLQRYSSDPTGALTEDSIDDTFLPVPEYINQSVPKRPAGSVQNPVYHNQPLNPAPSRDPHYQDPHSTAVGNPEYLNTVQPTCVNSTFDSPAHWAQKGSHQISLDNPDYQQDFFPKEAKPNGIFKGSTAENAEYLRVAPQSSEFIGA
- ASSAY: Inhibition of EGFR L858R (unknown origin) by mobility shift assay
Numbers only, in nM.

Guide cases for IC50, answers given:
- MOL SMILES: "C=CC(=O)Nc1cc2c(Nc3ccc(F)c(Cl)c3)ncnc2cc1OCc1cn(CCCC(=O)NO)nn1"
  TARGET DESC: "Epidermal growth factor receptor (Homo sapiens, UniProt P00533, L858R)"
  NUMERIC READOUT: 1.1
- MOL SMILES: "C=CC(=O)Nc1cc2c(Nc3cccc(Cl)c3F)ncnc2cc1OCc1cn(CCCCC(=O)NO)nn1"
  TARGET DESC: "Epidermal growth factor receptor (Homo sapiens, UniProt P00533, L858R)"
  NUMERIC READOUT: 1.2
- MOL SMILES: "C=CC(=O)Nc1cc2c(Nc3cccc(Cl)c3F)ncnc2cc1OCc1cn(CCC(=O)NO)nn1"
  TARGET DESC: "Epidermal growth factor receptor (Homo sapiens, UniProt P00533, L858R)"
  NUMERIC READOUT: 1.1
- MOL SMILES: "C=CC(=O)Nc1cc2c(Nc3ccc(OCc4cccc(F)c4)c(Cl)c3)ncnc2cc1OCc1cn(CCCC(=O)NO)nn1"
  TARGET DESC: "Epidermal growth factor receptor (Homo sapiens, UniProt P00533, L858R)"
  NUMERIC READOUT: 2.9
- MOL SMILES: "C=CC(=O)Nc1cc2c(Nc3ccc(F)c(Cl)c3)ncnc2cc1OCc1cn(CCC(=O)NO)nn1"
  TARGET DESC: "Epidermal growth factor receptor (Homo sapiens, UniProt P00533, L858R)"
  NUMERIC READOUT: 1.1

For every record below, what is its IC50?
1. C=CC(=O)Nc1cc2c(Nc3ccc(F)c(Cl)c3)ncnc2cc1OCc1cn(CCCCC(=O)NO)nn1
2. C=CC(=O)Nc1cc2c(Nc3ccc(OCc4cccc(F)c4)c(Cl)c3)ncnc2cc1OCc1cn(CCCCC(=O)NO)nn1
3. C=CC(=O)Nc1cc2c(Nc3ccc(OCc4cccc(F)c4)c(Cl)c3)ncnc2cc1OCc1cn(CCC(=O)NO)nn1

1: 0.88; 2: 2.6; 3: 2.2
